Test system: HaCat
procedureDetails: Cytotoxic Profiling of Annotated Libraries Using Quantitative High-Throughput Screening (AID 1296008); also: % is scaled to controls: 0 for no effect and ±100 for the full control effect; nearly all actives have a fitted effect of over 60% in size
testSettings: Five cell lines viability, CellTiter-Glo ATP luminescence, 48-72 h; active compounds read low
Inconclusive results are not listed.
measuredParameter: max response (%)
Reply with just the number (in %).

Kindly note the recorded max response for C/C=C(\C)C(=O)OC1C(C)C2(O)C3C=C(C)C(=O)C3CC(CO)=CC2C2C(C)(C)C12OC(C)=O (centres undefined) , which is 4.78

Note to self: max response recorded for `CC1=CC[C@@]2(C)CC[C@@](O)(C(C)C)[C@@H]2[C@@H](O)C1` was 1.77

response.value for O=C(O)c1ccnc2cc(C(OCC3CCC(F)(F)CC3)c3ccccc3Cl)[nH]c12 (centres undefined) (field: max response) = -20.6

In plain terms, `CCOC(=O)c1ccc(NC2CCCCC2)c(N)c1` has a documented max response of -10.7

Ref: PubChem BioAssay (NCATS)
